Reported EC 50 (IL-8 release, cross-linked) values are given for each entry in this list.
# Experimental system: T1, CD134 expressed on the cell surface of HT1080_OX40 cells (human, UniProt P43489 29-277)
# T1 sequence (looked up): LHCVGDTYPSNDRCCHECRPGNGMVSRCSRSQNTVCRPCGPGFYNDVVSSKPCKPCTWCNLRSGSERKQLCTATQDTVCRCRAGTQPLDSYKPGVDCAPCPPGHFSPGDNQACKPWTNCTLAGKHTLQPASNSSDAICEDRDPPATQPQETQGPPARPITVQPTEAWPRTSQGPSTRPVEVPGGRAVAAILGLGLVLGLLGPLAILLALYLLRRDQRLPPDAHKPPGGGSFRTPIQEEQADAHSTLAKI
# Experimental details: cell-based or functional assay
Attribute measured: EC 50 (IL-8 release, cross-linked) (µg/mL)

# Binder, Attribute measured, Measured result
records = [
    ("P018.S.02.A.H03 (antibody, V domains shown, V regions on human Ig constant parts; also called AB134_3) VH: QSLEESGGRLVTPGGSLTLTCTVSGIDLSSYGMGWVRQAPGKGLEWIGTISYGGSTFYANWVKGRFTISKTSTTVDLKVTSLTTEDAATYFCAREVPYWSLWGQGTLVTVSS VL: AYDMTQTPASVAAAVGGTVTIKCQASQSIGSDLSWYQQKRGQPPKLLIYDASTLASGVPSRFKGSGSGTEFTLTISDVQSADAATVYCQQDYSYRNVDNTFGGGTEVVVK", "EC 50 (IL-8 release, cross-linked)", 0.215),
    ("P018.S.12.A.D06 (antibody, V domains shown, V regions on human Ig constant parts; also called AB134_71) VH: QSVEESGGRLVTPGTPLTLTCTVSGFSLSSYDMSWVRQAPGKGLEWIGIIYVSGTTDYASWAKGRFTISKTSTTVDLKMTSLTTEDTATYFCARDIYVDEIGCFDLWGQGTLVTVSS VL: DILMTQTPASVEVAVGGTVTIKCQASQNIRTYLAWYQQKPGQPPKLLIYRASTLESGVPSRFKGSGSGIEFSLTISDLESADAATYYCQNYDGGSSTGFGGGTEVVVK", "EC 50 (IL-8 release, cross-linked)", 2.77),
]
